- Assay Notes: protein stability index of a GFP-peptide fusion (GPS, HEK-293T) (PSI 1-6); higher = more stable;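 note: 24-mer peptide tiles fused after GFP, lentivirally expressed, FACS-sorted into six equal bins by GFP/DsRed ratio, decoded by Illumina sequencing, PSI is the read-weighted mean bin number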
- Protocol Conditions: treatment: MLN4924 1 uM, 8 h; c terminus: a fixed tail appended
Each entry gets No if its protein stability index stays under 3, and Yes if its protein stability index is 3 or above.

Below are worked cases with known answers.
- Monomer Sequence: "ETNEEDKTLQEIYRKYRKLIESEL [FBXO39]"
  Assigned Class: "Yes"
- Monomer Sequence: "IRQLQEQHYQQYMQQLYQVQLAQQ [ACBD3]"
  Assigned Class: "No"
- Monomer Sequence: "TDLEMQIESLNEELAYMKKNHEEE [KRT13]"
  Assigned Class: "Yes"
- Monomer Sequence: "DVKKEKLSPDIMKDAYVQKLVKVC [TENT5D]"
  Assigned Class: "Yes"

### Prompt Identify whether the reported protein stability index of the following sequence is 3 or greater: FAKLEKLTILAKRKSLFDDKAVEI [STX5]
### Response No

### Prompt Check the entry QYYRTIEELQNKILTATVDNANIL [KRT17] : does protein stability index equal or exceed 3?
### Response No

### Prompt API: above_or_equal(metric=protein stability index, cutoff=3) for item GNAKGKILVLKTDSQDLVASFRVT [RBBP5]
### Response No

### Prompt Has TAPLYKDEKEQLIIPQVPLFNILA [USP39] a recorded protein stability index greater than or equal to 3?
### Response No

### Prompt Is protein stability index for LLHMPQPVNPELTAGPITGLVYRL [TRIM43] at or above 3?
### Response No

### Prompt Identify whether the reported protein stability index of the following sequence is 3 or greater: CIHDHHCGSQLSSTKGSRSNLSTR [NETO1]
### Response Yes

### Prompt Kindly determine if protein stability index recorded for MSPGDCPPETTETPKCSSPRGQEG [YJU2B] is above or exactly 3.
### Response Yes
